Values compiled from PubChem BioAssay (NCI).

experiment: NCI Yeast Anticancer Drug Screen. Data for the sgs1 mgt1 strain (AID 161); conditions: S. cerevisiae sgs1 mgt1 strain, at 50.0 µM (retest, dose inferred, filed as 5.0), hits give high values
This is part of a sample that, as a whole, favours compounds with a hit. Of some 79,000 tested, about 15% had one in any assay.
Note to self: class labels come from recorded growth inhibition, ranges listed here: low band: < 50%; middle band: ≥ 50% and < 90%; high band: ≥ 90%

{"Molecule": "O=C(CNC(=O)C(CSCc1ccccc1)NC(=O)OCc1ccccc1)Oc1c(Cl)c(Cl)c(Cl)c(Cl)c1Cl (stereo unspecified)", "Class": "low band"}
{"Molecule": "OCC(CO)C1c2cccc3ccc4cccc1c4c23", "Class": "low band"}
{"Molecule": "CCCNC(=O)OCc1ccc(NCCN(CC)CC)c2c(=O)c3ccccc3sc12", "Class": "low band"}
{"Molecule": "CCC[CH2][Sn]([CH2]CCC)([O]C(=O)C(OC(C)=O)c1ccccc1)[O]C(=O)C(OC(C)=O)c1ccccc1 (stereo unspecified)", "Class": "high band"}
{"Molecule": "Oc1ccccc1/C=N/NC(=S)NC12CC3CC(CC(C3)C1)C2", "Class": "low band"}
{"Molecule": "CCCCCCCC1SCC(=O)N1c1nncs1 (stereo unspecified)", "Class": "high band"}
{"Molecule": "Clc1cc(Cl)c(NN=C(c2ccccc2)c2ccccc2)c(Cl)c1", "Class": "high band"}
{"Molecule": "CN(C)c1cccc(F)c1C(=O)NC(=O)Nc1ccc(Cl)cc1", "Class": "low band"}
{"Molecule": "C=Cc1ccc(B2NCCO2)cc1", "Class": "high band"}
{"Molecule": "O=C1N[C@H]2[C@H](CS[C@H]2CCCCC(=O)N(CCP(c2ccccc2)c2ccccc2)CCP(c2ccccc2)c2ccccc2)N1", "Class": "low band"}
{"Molecule": "Cc1c2c(c(O)c3c(O)cccc13)C(=O)C1(O)C(=O)C(C(N)=O)C(O)C(N(C)C)C1C2 (stereo unspecified)", "Class": "high band"}
{"Molecule": "Cc1ccc2c(ccc(CC(=S)[S-])[n+]2C)c1", "Class": "low band"}
{"Molecule": "CCc1ccc(-c2ccccc2)cc1", "Class": "low band"}
{"Molecule": "ClCc1nnc2n1-c1ccc(Cl)cc1SC2", "Class": "middle band"}
{"Molecule": "Cc1c2ccncc2cc2c3ccccc3n(C)c12", "Class": "high band"}
{"Molecule": "CN(C)c1nc(=Nc2ccc(N=c3nc(N(C)C)ss3)cc2)ss1", "Class": "high band"}
{"Molecule": "O=C(O)/C=C/c1ccc([N+](=O)[O-])o1", "Class": "middle band"}
{"Molecule": "Nc1ccc(-c2nc3ccccc3s2)cc1Br", "Class": "high band"}
{"Molecule": "CN(C)CCC(/C=C/c1ccccc1)=N\\Nc1c(F)c(F)c(F)c(F)c1F", "Class": "low band"}
{"Molecule": "Cc1cc([N+](=O)[O-])cc(Cl)c1O", "Class": "middle band"}
{"Molecule": "CCN(CC)Cc1c(-c2ccccc2)oc(-c2ccccc2)c1CN(CC)CC", "Class": "low band"}
{"Molecule": "CCCN(CCC)CC(O)c1cc(-c2ccccc2)nc2c(Cl)cc(Cl)cc12 (stereo unspecified)", "Class": "middle band"}
{"Molecule": "CCCc1cc(=O)oc2c3c(c4c(c12)OC(C)(C)CC4)O[C@H](C)[C@@H](C)[C@H]3O", "Class": "high band"}
{"Molecule": "CC(=O)Nc1ccc2c(c1)[nH]c(=O)c1cc(Cl)ccc12", "Class": "middle band"}
{"Molecule": "Cc1c(NC(=O)C(=O)N=NC(=O)c2ccncc2)c(O)c2ccccc2c1O", "Class": "middle band"}
{"Molecule": "CCOC(=O)c1[nH]n(-c2ccccc2)c(=O)c1/C=N/C(=S)Nc1ccccc1OC", "Class": "low band"}
{"Molecule": "COc1ccccc1/C=C1\\S/C(=N/Nc2nc(C)c(C(C)=O)s2)NC1=O", "Class": "low band"}
{"Molecule": "CN(C)c1nc(NNS(=O)(=O)c2ccc(N)cc2)nc(N(C)C)n1", "Class": "low band"}
{"Molecule": "O=C1C=CC(=O)c2c(O)c(N3CCN(CCO)CC3)c(Cl)c(O)c21", "Class": "high band"}
{"Molecule": "OC1(C2c3ccccc3-c3ccccc32)c2ccccc2-c2ccccc21", "Class": "high band"}
{"Molecule": "COc1ccc(C(=O)C(CCC(=O)/C=C/c2ccccc2)S(C)(=O)=O)cc1 (stereo unspecified)", "Class": "low band"}
{"Molecule": "C#CC(NCCC(C)CC(C)(C)C)C(C)C (stereo unspecified)", "Class": "low band"}
{"Molecule": "CC1=C(C(=O)Nc2cccc(Cl)c2)C(c2ccccc2O)C(C(=O)Nc2cccc(Cl)c2)=C(C)N1", "Class": "low band"}
{"Molecule": "CN(C)CCNc1ccc(O)c2sc3ccccc3c(=O)c12", "Class": "middle band"}
{"Molecule": "Nc1ccc(Sc2c3ccccc3nc3ccccc23)cc1", "Class": "high band"}
{"Molecule": "Cn1c2ccccc2c2nnc(N/N=C/c3ccccn3)nc21", "Class": "high band"}
{"Molecule": "CN(C)c1ccc(C(=C2C=CC(=[N+](C)C)C=C2)c2ccc(N(C)C)cc2)cc1 (tested in a mixture with another compound)", "Class": "high band"}
